# ASSAYED SYSTEM: Serine/threonine-protein kinase Chk1 (Homo sapiens)
# EXPERIMENT DESCRIPTION: Inhibition of partial length wild type human CHK1 (M1 to G289 residues) expressed in bacterial expression system assessed as residual activity at 10 uM by KINOMEscan assay relative to control
METRIC: Activity (%)

# MOLECULE, ASSAYED SYSTEM, UNIT OF MEASURE, REPORTED RESULT
data = [
    ("O=C1NC(=S)S/C1=C\\c1csc(-c2ccc(C(F)(F)F)cc2)n1", "Serine/threonine-protein kinase Chk1 (Homo sapiens)", "%", 108),
    ("N=C1NC(=O)/C(=C/c2csc(-c3ccc(C(F)(F)F)cc3)n2)S1", "Serine/threonine-protein kinase Chk1 (Homo sapiens)", "%", 108),
    ("O=C1NC(=S)S/C1=C\\c1cscn1", "Serine/threonine-protein kinase Chk1 (Homo sapiens)", "%", 108),
    ("O=C1NC(=S)N2C(=O)C3Nc4cc(Cl)cc(Cl)c4C3C=C12 (centres undefined)", "Serine/threonine-protein kinase Chk1 (Homo sapiens)", "%", 105),
]

###

# ASSAYED SYSTEM: Dual specificity tyrosine-phosphorylation-regulated kinase 2 (Homo sapiens)
# EXPERIMENT DESCRIPTION: Inhibition of full length wild type human DYRK2 (M1 to S528 residues) expressed in mammalian expression system assessed as residual activity at 10 uM by KINOMEscan assay relative to control
METRIC: Activity (%)

[P] N=C1NC(=O)/C(=C/c2csc(-c3ccc(C(F)(F)F)cc3)n2)S1
[Q] O=C1NC(=S)S/C1=C\c1cscn1
// pick min by Activity: P , Q // return label of chosen record Q

###

# ASSAYED SYSTEM: Insulin receptor (Homo sapiens) (UniProt P06213)
# Sequence (P06213 28-758 limits assumed): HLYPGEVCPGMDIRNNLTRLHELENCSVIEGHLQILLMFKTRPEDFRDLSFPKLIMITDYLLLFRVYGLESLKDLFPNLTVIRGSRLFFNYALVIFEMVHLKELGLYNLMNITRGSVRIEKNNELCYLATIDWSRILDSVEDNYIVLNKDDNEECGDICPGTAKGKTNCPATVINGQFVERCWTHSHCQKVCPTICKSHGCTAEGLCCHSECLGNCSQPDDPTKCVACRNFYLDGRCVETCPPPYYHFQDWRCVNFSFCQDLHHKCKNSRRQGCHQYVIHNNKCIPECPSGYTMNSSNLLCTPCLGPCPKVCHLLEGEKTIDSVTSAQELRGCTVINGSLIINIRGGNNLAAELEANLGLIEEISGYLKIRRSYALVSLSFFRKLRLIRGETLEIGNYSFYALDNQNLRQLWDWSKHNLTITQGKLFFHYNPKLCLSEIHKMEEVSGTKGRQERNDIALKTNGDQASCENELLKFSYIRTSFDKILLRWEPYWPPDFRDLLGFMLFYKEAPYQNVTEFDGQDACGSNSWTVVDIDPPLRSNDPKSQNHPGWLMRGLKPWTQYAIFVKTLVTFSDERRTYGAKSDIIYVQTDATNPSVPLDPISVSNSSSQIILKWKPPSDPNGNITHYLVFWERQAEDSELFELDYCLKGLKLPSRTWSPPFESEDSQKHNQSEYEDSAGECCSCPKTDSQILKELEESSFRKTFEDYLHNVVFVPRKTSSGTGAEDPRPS
# Sequence (P06213 763-1382 limits assumed): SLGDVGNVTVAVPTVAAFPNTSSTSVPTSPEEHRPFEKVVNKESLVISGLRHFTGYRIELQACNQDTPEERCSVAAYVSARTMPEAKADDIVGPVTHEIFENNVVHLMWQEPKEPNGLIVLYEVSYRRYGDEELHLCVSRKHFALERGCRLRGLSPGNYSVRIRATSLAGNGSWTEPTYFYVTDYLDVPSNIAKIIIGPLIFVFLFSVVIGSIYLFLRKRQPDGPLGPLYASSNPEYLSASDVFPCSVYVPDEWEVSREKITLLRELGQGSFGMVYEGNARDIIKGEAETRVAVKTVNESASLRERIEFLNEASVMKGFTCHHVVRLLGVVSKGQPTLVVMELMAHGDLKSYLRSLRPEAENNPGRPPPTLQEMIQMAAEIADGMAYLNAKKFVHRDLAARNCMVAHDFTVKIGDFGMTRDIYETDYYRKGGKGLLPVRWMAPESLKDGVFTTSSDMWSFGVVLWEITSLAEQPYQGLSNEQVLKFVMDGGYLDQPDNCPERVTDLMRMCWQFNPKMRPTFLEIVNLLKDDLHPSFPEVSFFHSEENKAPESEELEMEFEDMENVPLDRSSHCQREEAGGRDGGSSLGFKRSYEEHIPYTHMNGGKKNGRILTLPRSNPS
# EXPERIMENT DESCRIPTION: Inhibition of partial length wild type human IR (P997 to E1318 residues) expressed in mammalian expression system assessed as residual activity at 10 uM by KINOMEscan assay relative to control
METRIC: Activity (%)

# COMPOUND, UNIT OF MEASURE, Activity
records = [
    ("O=C1NC(=S)N2C(=O)C3Nc4cc(Cl)cc(Cl)c4C3C=C12 (centres undefined)", "%", 99),
    ("O=C1NC(=S)S/C1=C\\c1cscn1", "%", 143),
    ("N=C1NC(=O)/C(=C/c2csc(-c3ccc(C(F)(F)F)cc3)n2)S1", "%", 102),
    ("O=C1NC(=S)S/C1=C\\c1csc(-c2ccc(C(F)(F)F)cc2)n1", "%", 101),
]

###

# ASSAYED SYSTEM: Serine/threonine-protein kinase pim-2 (Homo sapiens) (UniProt Q9P1W9)
# Sequence (Q9P1W9 whole entry, looked up): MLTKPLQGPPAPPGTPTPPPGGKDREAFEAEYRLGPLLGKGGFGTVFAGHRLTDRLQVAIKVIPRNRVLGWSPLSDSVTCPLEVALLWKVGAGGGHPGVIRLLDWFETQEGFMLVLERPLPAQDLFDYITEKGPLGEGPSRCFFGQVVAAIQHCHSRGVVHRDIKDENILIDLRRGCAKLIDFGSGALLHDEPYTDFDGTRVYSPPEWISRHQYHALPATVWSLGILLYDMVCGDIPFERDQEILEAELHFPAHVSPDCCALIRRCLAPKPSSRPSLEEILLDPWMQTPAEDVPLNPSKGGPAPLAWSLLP
# EXPERIMENT DESCRIPTION: Inhibition of recombinant PIM2 (unknown origin) assessed as change in melting temperature at 10 uM by SYPRO orange dye-based differential scanning fluorimetry
METRIC: ΔTm (°C)

Sample records with ΔTm:
# SMILES STRUCTURE, ASSAYED SYSTEM, UNIT OF MEASURE, ΔTm
rows = [
    ("O=C1NC(=S)S/C1=C\\c1csc(-c2ccccc2)n1", "Serine/threonine-protein kinase pim-2 (Homo sapiens) (UniProt Q9P1W9)", "°C", 12),
    ("COc1ccc(-c2nc(/C=C3\\SC(=S)NC3=O)cs2)cc1", "Serine/threonine-protein kinase pim-2 (Homo sapiens) (UniProt Q9P1W9)", "°C", 11.5),
    ("O=C1NC(=S)S/C1=C\\c1csc(-c2ccccc2O)n1", "Serine/threonine-protein kinase pim-2 (Homo sapiens) (UniProt Q9P1W9)", "°C", 17),
    ("O=C1NC(=S)S/C1=C\\c1csc(-c2cccc(O)c2)n1", "Serine/threonine-protein kinase pim-2 (Homo sapiens) (UniProt Q9P1W9)", "°C", 12.2),
]

[P] O=C1NC(=S)S/C1=C\c1csc(-c2ccccc2C(F)(F)F)n1
[Q] COc1cccc(-c2nc(/C=C3\SC(=S)NC3=O)cs2)c1
// pick min by ΔTm: P , Q // return label of chosen record P
(P: 8.2 °C, Q: 13.3 °C)
